- Test system: Mfn2 null MEFs
- protocol_summary: Mitochondrial elongation (aspect ratio) fusogenicity assay
- Assay type: cell-based, mouse
- Design: dose or concentration left out as unconfirmed
- recorded_conditions: mitochondrial elongation relative to Cpd B (B01 = 100); Mfn2 null MEFs, compound overnight as printed (FIG. 48)
experimental_readout: % long compare to B (%)
Write the value in % as a bare number.

// below: answered molecules
- NC(=O)c1c(NC(=O)CSc2nc(C3CC3)n(-c3ccccc3)n2)sc2c1CCC2 [1-A5]: −6
- O=C(NCCSCc1ccccc1F)NC1CCCCC1 [1-B10]: 6
- CC(Sc1nnc(-c2ccccc2)n1Cc1ccco1)C(=O)Nc1sc2c(c1C(N)=O)CCC2 (stereo not shown) [1-D7]: 92
- CC(Sc1nccn1-c1cccc(F)c1)C(=O)Nc1sc2c(c1C(N)=O)CCC2 (stereo not shown) [1-E8]: 5
- CCn1c(Cc2ccccc2)nnc1SC(C)C(=O)Nc1sc2c(c1C(N)=O)CCC2 (stereo not shown) [1-A8]: 47
- O=C(NCCCCc1ccccc1)Nc1ccccc1 [pA, 3-phenyl-1-(4-phenylbutyl)urea]: 59
- COc1ccc(-n2ccnc2SC(C)C(=O)Nc2sc3c(c2C(N)=O)CCC3)cc1 (stereo not shown) [1-A7]: −24
- CC(Sc1nnc(Cc2ccccc2)n1C)C(=O)Nc1sc2c(c1C(N)=O)CCC2 (stereo not shown) [1-H6]: 8
- N#Cc1c(NC(=O)CSc2nnc(C3CC3)n2-c2ccccc2)sc2c1CCCC2 [1-C1]: 19
- CC(Sc1nnc(-c2cccnc2)n1Cc1ccco1)C(=O)Nc1sc2c(c1C(N)=O)CCC2 (stereo not shown) [1-F10]: 29

Sample Cc1nc[nH]c1CSCCn1cnc2cn(C)nc2c1=O [E03] — what was its % long compare to B?
−10

* * *

Reported % long compare to B is given for each of the following molecules.
- Tested on: Mfn2 null MEFs
- protocol_summary: Mitochondrial elongation (aspect ratio) fusogenicity assay
- Assay type: cell-based, mouse
- Set-up: dose or concentration left out as unconfirmed
- recorded_conditions: mitochondrial elongation relative to Cpd B (B01 = 100); Mfn2 null MEFs, compound overnight as printed (FIG. 48)
# unit: % | format: bare number

// known answers, use as guide
* NC(=O)c1c(NC(=O)CSc2nnc3n2CCCCC3)sc2c1CCC2 | 45
* Cc1ccc(C(C)C)c(OCCCSCc2nc3ccccc3[nH]2)c1 | −5
* Cn1c(SCC(=O)Nc2sc3c(c2C(N)=O)CCC3)nnc1-c1ccccc1 | 107

Identify the measured % long compare to B of `NC(=O)c1c(NC(=O)CSc2nnc(C3CC3)n2-c2ccccc2)sc2c1CCCC2` for Mfn2 null MEFs.
−3

Proceed to `COc1ccccc1-n1c(C)nnc1SCC(=O)Nc1sc2c(c1C(N)=O)CCCC2`
22

Thanks! And `NC(=O)c1c(NC(=O)CSc2nnc(C3CC3)n2-c2ccccc2)sc2c1CCC2` ?
90

Entry to check: `Cc1ccc(N2C[C@@H]3CC[C@H](C2)N(Cc2ccccn2)C3=O)nn1`
−4

Item: `CC(C)(C)NC(=O)NC(=O)COC(=O)CSCc1nc2scc(-c3ccccc3)c2c(=O)[nH]1`
64

Query CCC(C)C1N=C2c3ccccc3N=C(SC(C)C(=O)Nc3cc(OC)cc(OC)c3)N2C1=O (stereo not drawn) next
−1

Each recorded value in this set is attributed to patent US10844023B2.
